Reference source for all entries: paper doi:10.1101/2021.10.07.463234v2

- targetOfAssay: SARS-CoV-2 Mac1 (Severe acute respiratory syndrome coronavirus 2)
- test: biochemical
- conditionsUsed: read-out: %inhibition
Where a name gives a salt, the structure may show the parent alone.
The following compounds are shown together with reported inhibition at 100 µM values.
readoutKind: inhibition at 100 µM (%)

1) CC[C@@]1(O)C(=O)OCc2c1cc1n(c2=O)Cc2cc3c(CN(C)C)c(O)ccc3nc2-1 [Topotecan HCl]	24.2
2) CCOc1ccc(NC(=O)CC(C)O)cc1 (centres unmarked)	2.67
3) CCCCN1CCCC[C@H]1C(=O)Nc1c(C)cccc1C [Levobupivacaine HCl]	0
4) COC(=O)C1=C(C)NC(C)=C(C(=O)OCCN2CCN(C(c3ccccc3)c3ccccc3)CC2)C1c1cccc([N+](=O)[O-])c1 (centres unmarked) [Manidipine 2HCl]	0
5) CNC(=O)c1ccccc1Sc1ccc2c(/C=C/c3ccccn3)n[nH]c2c1	59.3

====

- targetOfAssay: SARS-CoV-2 Mac1 (Severe acute respiratory syndrome coronavirus 2, UniProt P0DTD1)
- test: biochemical
- conditionsUsed: read-out: %inhibition
Where a name gives a salt, the structure may show the parent alone.
Binary classification by inhibition at 100 µM, with 2% as an inclusive lower bound for class 1; all other cases are class 0.

1) C=C1CCN([C@H](C)[C@](O)(Cn2cncn2)c2ccc(F)cc2F)CC1	class 1
2) CCC(COC(=O)c1cc(OC)c(OC)c(OC)c1)(c1ccccc1)N(C)C (centres unmarked) [Trimebutine maleate]	class 0
3) CC(C)C(=O)OCC(=O)[C@@]12O[C@H](C3CCCCC3)O[C@@H]1C[C@H]1[C@@H]3CCC4=CC(=O)C=C[C@]4(C)[C@H]3[C@@H](O)C[C@@]12C [Ciclesonide]	class 0
4) Cc1onc(-c2ccccc2)c1-c1ccc(S(N)(=O)=O)cc1	class 1
5) N[C@@H]1CN(c2c(F)cc3c(=O)c(C(=O)O)cn([C@@H]4C[C@@H]4F)c3c2Cl)CC12CC2 [Sitafloxacin Hydrate]	class 1
6) CCOC(=O)CC(=O)N1CCSC1COc1ccccc1OC (centres unmarked)	class 1
7) NCCC[C@H](N)C(=O)O	class 0

====

- targetOfAssay: SARS-CoV-2 Mac1 (Severe acute respiratory syndrome coronavirus 2)
- test: biochemical
- conditionsUsed: read-out: %inhibition
Where a name gives a salt, the structure may show the parent alone.
# cutoff 3% applies to inhibition at 100 µM; >= gives MET, < gives NOT MET

1. COC(=O)N[C@H](C(=O)N1CC2(CC2)C[C@H]1c1nc(-c2ccc3c(c2)C(F)(F)c2cc(-c4ccc5[nH]c([C@@H]6[C@H]7CC[C@H](C7)N6C(=O)[C@@H](NC(=O)OC)C(C)C)nc5c4)ccc2-3)c[nH]1)C(C)C	MET
2. NC(CO)(CO)CO	MET
3. CC1=C(C(=O)O)N2C(=O)[C@@H](NC(=O)[C@H](N)c3ccc(O)cc3)[C@H]2SC1 [Cefadroxil hydrate]	NOT MET
4. C#C[C@]1(O)CC[C@H]2[C@@H]3CCC4=CC(=O)CC[C@@H]4[C@H]3CC[C@@]21C	NOT MET
5. CN1CCN(c2ccc(C(=O)Nc3n[nH]c4ccc(Cc5cc(F)cc(F)c5)cc34)c(NC3CCOCC3)c2)CC1 [Entrectinib (RXDX-101)]	MET
6. N=C(N)NCCC[C@H](N)C(=O)O [L-Arginine HCl (L-Arg)]	NOT MET
7. N=C(N)NC(=N)NCCc1ccccc1 [Phenformin HCl]	MET
